Where these numbers come from: PubChem BioAssay (EPA / NIEHS)

# PROTOCOL DETAILS: APR_HepG2_MitoticArrest_24hr: Apredica 24-hour HepG2 Assay for Mitotic Arrest (AID 2282910)
# EXPERIMENTAL SETUP: high-content imaging, actives raise or lower the signal
The source made the active and inactive calls. Rule for the calls: active = hit-call score of the fitted dose curve at least 0.9, where 1 is the maximum; inactive = score below 0.9.
Possible outcomes: 1.0 (active), 0.0 (inactive)

[
  {
    "SMILES INPUT": "O=C(O)c1ccccc1C(=O)OCc1ccccc1",
    "QUALITATIVE LABEL": 0.0
  },
  {
    "SMILES INPUT": "O=CCCCC=O",
    "QUALITATIVE LABEL": 0.0
  },
  {
    "SMILES INPUT": "CCCCCCCCCCCO",
    "QUALITATIVE LABEL": 1.0
  },
  {
    "SMILES INPUT": "CC[C@@H]1C[C@H](N(Cc2cc(C(F)(F)F)cc(C(F)(F)F)c2)C(C)=O)c2cc(C(F)(F)F)ccc2N1C(=O)OC(C)C",
    "QUALITATIVE LABEL": 0.0
  },
  {
    "SMILES INPUT": "CC/C(=C(/CC)c1ccc(O)cc1)c1ccc(O)cc1",
    "QUALITATIVE LABEL": 1.0
  },
  {
    "SMILES INPUT": "O=C(O)Cn1c(=O)n(Cc2ccc(Br)cc2F)c(=O)c2ccc(Cl)cc21",
    "QUALITATIVE LABEL": 0.0
  }
]

====

# System: frog Estrogen Receptor (ER), gene 398734
# PROTOCOL DETAILS: ATG_frER1_XSP2: Attagene TRANS-FACTORIAL Multi-Species (XSP2) HepG2 Assay for frog Estrogen Receptor (ER) (AID 2283821);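 note: hits raise reporter mRNA above DMSO baseline so potency means agonist or activator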
Records with an inconclusive call do not appear. Activity calls are given as the source filed them. Rule for the calls: active = hit-call score of the fitted dose curve at least 0.9, where 1 is the maximum; inconclusive = response in the unintended direction; inactive = score below 0.9.
Possible outcomes: yes (1) (active), no (0) (inactive)

[
  {
    "SMILES INPUT": "O=C(O)Cc1cc(I)c(Oc2ccc(O)c(I)c2)c(I)c1",
    "QUALITATIVE LABEL": "no (0)"
  },
  {
    "SMILES INPUT": "Cc1c2ccccc2c(C)c2c1ccc1ccccc12",
    "QUALITATIVE LABEL": "yes (1)"
  },
  {
    "SMILES INPUT": "C[C@]12CC[C@@H]3c4ccc(O)cc4CC[C@H]3[C@@H]1CCC2=O",
    "QUALITATIVE LABEL": "yes (1)"
  },
  {
    "SMILES INPUT": "CC/C(=C(/CC)c1ccc(O)cc1)c1ccc(O)cc1",
    "QUALITATIVE LABEL": "yes (1)"
  }
]

====

# Read-out: Caspase-3 (Homo sapiens)
# PROTOCOL DETAILS: LTEA_HepaRG_CASP3: Life Technologies and Expression Analysis (LTEA) Assay for cysteine-aspartic acid protease (CASP3) using HepaRG (AID 2283477)
# EXPERIMENTAL SETUP: mRNA level, 48 h; actives raise or lower the signal
Active and inactive are the calls of the source. How the source made its calls: active means hit-call score of the fitted dose curve at least 0.9, where 1 is the maximum; inactive means score below 0.9.
Possible outcomes: T (active), F (inactive)

[
  {
    "COMPOUND": "Cc1oc2c(NC(=O)c3c(Cl)cccc3Cl)cccc2c1C(C)(C)O",
    "QUALITATIVE LABEL": "F"
  },
  {
    "COMPOUND": "CCCCCCCCCC(=O)O",
    "QUALITATIVE LABEL": "F"
  },
  {
    "COMPOUND": "CCN(Cc1cccc(S(=O)(=O)O)c1)c1ccc(C(=C2C=CC(=[N+](CC)Cc3cccc(S(=O)(=O)O)c3)C=C2)c2ccccc2S(=O)(=O)[O-])cc1",
    "QUALITATIVE LABEL": "F"
  },
  {
    "COMPOUND": "O=C(O)Cn1c(=O)n(Cc2ccc(Br)cc2F)c(=O)c2ccc(Cl)cc21",
    "QUALITATIVE LABEL": "F"
  },
  {
    "COMPOUND": "Cc1cn([C@H]2C[C@H](N=[N+]=[N-])[C@@H](CO)O2)c(=O)[nH]c1=O",
    "QUALITATIVE LABEL": "F"
  },
  {
    "COMPOUND": "CCCCOC(=O)CC(CC(=O)OCCCC)(OC(C)=O)C(=O)OCCCC",
    "QUALITATIVE LABEL": "F"
  },
  {
    "COMPOUND": "CCCCCCCCN(C)CCCCCCCC",
    "QUALITATIVE LABEL": "F"
  },
  {
    "COMPOUND": "COCC(C)OCC(C)OCC(C)O (stereo unspecified)",
    "QUALITATIVE LABEL": "F"
  },
  {
    "COMPOUND": "Cc1ccc2oc(CN(Cc3ccccc3)C(=O)Nc3c(F)cc(F)cc3F)c(-c3ccc(Cl)cc3)c2c1",
    "QUALITATIVE LABEL": "F"
  },
  {
    "COMPOUND": "CCCCCc1ccc(N)cc1",
    "QUALITATIVE LABEL": "F"
  },
  {
    "COMPOUND": "O=c1c(-c2ccc(O)cc2)coc2cc(O)cc(O)c12",
    "QUALITATIVE LABEL": "F"
  },
  {
    "COMPOUND": "CCCOC(=O)c1cc(O)c(O)c(O)c1",
    "QUALITATIVE LABEL": "F"
  },
  {
    "COMPOUND": "COc1cc(C(=O)NC2CCN(C)CC2)ccc1Nc1ncc2c(n1)N(C1CCCC1)CC(F)(F)C(=O)N2C",
    "QUALITATIVE LABEL": "T"
  },
  {
    "COMPOUND": "CC1(C)NC(=O)N(c2ccc([N+](=O)[O-])c(C(F)(F)F)c2)C1=O",
    "QUALITATIVE LABEL": "F"
  },
  {
    "COMPOUND": "CCCCCCCCCCCCO",
    "QUALITATIVE LABEL": "F"
  },
  {
    "COMPOUND": "CCN(CC)C(=O)c1cc(S(=O)(=O)Cc2ccccc2)c(N2CCC(c3ccccc3)CC2)cc1N(CC)CCN(C)C",
    "QUALITATIVE LABEL": "T"
  },
  {
    "COMPOUND": "O=C(Nc1ccc(Cl)cc1)Nc1ccc(Cl)c(Cl)c1",
    "QUALITATIVE LABEL": "T"
  },
  {
    "COMPOUND": "NC(=O)c1nc(-c2cccc(-c3cc(F)ccc3OCC(F)(F)C(F)(F)F)c2)n[nH]1",
    "QUALITATIVE LABEL": "F"
  },
  {
    "COMPOUND": "Oc1ccc2ccccc2c1",
    "QUALITATIVE LABEL": "F"
  },
  {
    "COMPOUND": "c1ccc(C[n+]2cccc3ccccc32)cc1",
    "QUALITATIVE LABEL": "F"
  },
  {
    "COMPOUND": "C[C@]12CC[C@@H]3c4ccc(O)cc4CC[C@H]3[C@@H]1CCC2=O",
    "QUALITATIVE LABEL": "F"
  }
]
